Some substances, each annotated with its measured pKi.
# MEASURED_TARGET: Neuropeptide Y receptor type 2 (Cavia porcellus)
# Sequence (Q9Z2D5 whole entry): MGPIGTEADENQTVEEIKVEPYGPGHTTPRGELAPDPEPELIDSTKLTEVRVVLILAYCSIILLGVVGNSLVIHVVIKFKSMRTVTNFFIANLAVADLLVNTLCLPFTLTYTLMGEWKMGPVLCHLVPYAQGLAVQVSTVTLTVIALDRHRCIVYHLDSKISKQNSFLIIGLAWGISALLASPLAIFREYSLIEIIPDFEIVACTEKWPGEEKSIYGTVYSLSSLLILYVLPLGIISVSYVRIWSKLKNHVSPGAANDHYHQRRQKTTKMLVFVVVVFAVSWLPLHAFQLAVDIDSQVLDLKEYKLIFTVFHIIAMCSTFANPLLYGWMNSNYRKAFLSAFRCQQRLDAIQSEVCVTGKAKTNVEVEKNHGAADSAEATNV
Expect pKi as a plain number equal to -log10 of the molar concentration.

# SUBSTANCE, pKi
records = [
    ("H-INPIYRLRY-NH2 [NPY 28-36, [P30, Y32, L34]]", 6.53),
]

# evaluate next
Q) State pKi on Neuropeptide Y receptor type 2 (Cavia porcellus). Entry: H-APLEPEYPGDNATPEQMAQYAAELRRYINMLTRPRY-NH2 [CAS_59763-91-6]
A) 6.00
